Can you tell me %Inh for the items I'm about to list?
- System: CDK8
- ASSAY_SETUP: concentration: 1 μM,replicates: in singlicate; n = 1;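 further: KINOMEscan kinase panel screen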
Form entry: value (%) — number only.

Fill in the blank: the reported %Inh of `O=C(Nc1cccc(C(F)(F)F)c1)c1cccc(Oc2ccc3nccn3n2)c1` is ____.
0

Can you check CCCC(=O)Nc1n[nH]c2ncccc12 [SB-601436] next?
0

Can you check CSc1nccc(-c2c(-c3ccc(F)cc3)ncn2CCCN2CCOCC2)n1.Cl [SB-217146] next?
1

Can you check C[C@@H](Oc1cc(-n2cnc3ccc(-c4ccncc4)cc32)sc1C(N)=O)c1ccccc1Cl [GSK483724] next?
57

Can you check CC(=O)c1c(-c2ccncc2)[nH]c(-c2ccncc2)c1C [GW493036] next?
0

Can you check `OCCn1cc(-c2cnc3nnn(Cc4ccc5ncccc5c4)c3n2)cn1` next?
0

Can you check `O=C(Nc1ccc(Oc2ccc3nc(NC(=O)C4CC4)cn3n2)c(F)c1)c1cccn(-c2ccccc2)c1=O` next?
63

Can you check CN1CCN(CCCNc2nccc(-c3c(-c4ccc(F)cc4)nn4cc(C(N)=O)ccc34)n2)CC1 [GW622475] next?
19

Can you check `Cn1ccc2ncnc(Oc3ccc(NC(=O)Nc4cc(C(C)(C)C)on4)c(Cl)c3)c21` next?
90.9

Can you check `CN(c1cccc(CNc2nc(Nc3ccc4c(c3)CC(=O)N4)ncc2C(F)(F)F)c1)S(C)(=O)=O` next?
0

Can you check `O=C(NOCC1CC1)c1cc(Br)c(F)c(F)c1Nc1ccc(I)cc1Cl` next?
0

Can you check COC(=O)c1cccc(NC(=O)NC2CCN(c3ccnc(Nc4cc(OC)c(OC)c(OC)c4)n3)C2)c1 (stereo not shown) [GSK1379767] next?
56

Can you check `Cn1ccc2ncnc(Oc3ccc(NC(=O)Nc4cncc(C(F)(F)F)c4)c(Cl)c3)c21` next?
95

* * *

- System: HCK
- ASSAY_SETUP: concentration: 1 μM,replicates: in singlicate; n = 1
Can you tell me %Inh for the items I'm about to list?
Form entry: value (%) — number only.

Fill in the blank: the reported %Inh of `COc1cccc(C2=C(Nc3cccc(Cl)c3)C(=O)NC2=O)c1` is ____.
0

Can you check `C[C@@H](Oc1cc(-n2cnc3ccc(-c4ccncc4)cc32)sc1C(N)=O)c1ccccc1Cl` next?
0

Can you check `CSc1nccc(-c2c(-c3ccc(F)cc3)ncn2CCCN2CCOCC2)n1.Cl` next?
14

Can you check COc1ccc(Nc2nccc(N3CCC(NC(=O)c4cccc(C#N)c4)C3)n2)cc1 (stereo not drawn) next?
5

Can you check `CS(=O)(=O)Nc1ccc(-c2ccnc3[nH]ccc23)cc1` next?
0

Can you check COc1cc(Nc2nccc(N3CCC(NC(=O)c4cccc(C#N)c4)C3)n2)cc(OC)c1OC (stereo not drawn) next?
0

Can you check `COc1cc2c(Nc3ccc(NC(=O)c4ccccc4)cc3)ncnc2cc1OCCCN1CCOCC1` next?
0

Can you check `CCCC(=O)Nc1n[nH]c2ncccc12` next?
0

Can you check `O=C(Nc1cccc(C(F)(F)F)c1)c1cccc(Oc2ccc3nccn3n2)c1` next?
52

Can you check `CNC(=O)c1ccccc1Nc1nc(Nc2cccc(CS(C)(=O)=O)c2)ncc1C.O=CO` next?
99.2

Can you check `NC(=O)c1ccc(-c2cc3ncnc(SCC(=O)O)c3s2)cc1` next?
13

Can you check N#Cc1cccc(C(=O)NC2CCN(c3ccnc(Nc4ccc(F)cc4)n3)C2)c1 (stereo not drawn) next?
0

Can you check `O=C1NCCc2[nH]c(-c3ccncc3)cc21` next?
20

Can you check CCNCC(Cc1ccccc1)NC(=O)c1cc(Br)c(-c2ccnc3[nH]ccc23)s1.Cl.Cl (stereo not drawn) next?
0

Can you check `C[C@@H](Oc1cc(-n2cnc3cc(-c4ccncc4)ccc32)sc1C(N)=O)c1ccccc1Cl` next?
9
